Reported Toxic Deaths values are given for each entry in this list.
Test system: A2780 Human Ovarian Carcinoma Xenografts
Settings: i.v. qd x 1 (mg/kg: Taxol 24, 1351 75.3, 1401 107.6, 1418 107.6, Taxotere 70), Day 60
Enter a number only.

| Compound | Toxic Deaths |
| --- | --- |
| CC(=O)O[C@@]12CO[C@@H]1C[C@H](O)[C@@]1(C)C(=O)[C@H](O)C3=C(C)[C@@H](OC(=O)[C@H](O)[C@@H](NC(=O)OC(C)(C)C)c4ccccc4)C[C@@](O)([C@@H](OC(=O)c4ccccc4)[C@H]21)C3(C)C [docetaxel, reference compound] | 0 |

Now for another entry.
Exercise: I am curious: what Toxic Deaths value has been reported for CCC(=O)O[C@H]1C[C@H]2OC[C@@]2(OC(C)=O)[C@H]2[C@H](OC(=O)c3ccccc3)[C@]3(O)C[C@H](OC(=O)[C@H](O)[C@@H](NC(=O)OC(C)(C)C)c4ccoc4)C(C)=C([C@@H](O)C(=O)[C@]12C)C3(C)C [Compound 1401] ?
Key: 0

====

Reported pIC50 values are given for each entry in this list.
System: HCT116
Experiment: In Vitro cytotoxicity measured by the cell colony formation assay
Assay type: cell-based
Conditions: Homo sapiens, HCT-116; 72 h drug incubation, colonies counted after 7 days; concentration producing 50% inhibition of colony formation; read-out: IN VITRO ID 50 (nm) HCT116
pIC50: −log10 of the molar value.

| Compound | Recorded Result |
| --- | --- |
| CCCC(=O)O[C@H]1C[C@H]2OC[C@@]2(OC(C)=O)[C@H]2[C@H](OC(=O)c3ccccc3)[C@]3(O)C[C@H](OC(=O)[C@H](O)[C@@H](NC(=O)OCC(C)C)c4ccoc4)C(C)=C([C@@H](O)C(=O)[C@]12C)C3(C)C | > 8.00 |

Exercise: I am curious: what pIC50 value has been reported for CCCC(=O)O[C@H]1C[C@H]2OC[C@@]2(OC(C)=O)[C@H]2[C@H](OC(=O)c3ccccc3)[C@]3(O)C[C@H](OC(=O)[C@H](O)[C@@H](NC(=O)OCC(C)C)C4CC4)C(C)=C([C@@H](O)C(=O)[C@]12C)C3(C)C ?
Key: > 8.00

Exercise: I am curious: what pIC50 value has been reported for CCOC(=O)N[C@@H](c1ccco1)[C@@H](O)C(=O)O[C@H]1C[C@@]2(O)[C@@H](OC(=O)c3ccccc3)[C@@H]3[C@]4(OC(C)=O)CO[C@@H]4C[C@H](OC(=O)CC)[C@@]3(C)C(=O)[C@H](O)C(=C1C)C2(C)C ?
Key: > 9.00

Exercise: I am curious: what pIC50 value has been reported for CCC(=O)O[C@H]1C[C@H]2OC[C@@]2(OC(C)=O)[C@H]2[C@H](OC(=O)c3ccccc3)[C@]3(O)C[C@H](OC(=O)[C@H](O)[C@@H](NC(=O)OC(C)(C)C)c4ccccn4)C(C)=C([C@@H](O)C(=O)[C@]12C)C3(C)C ?
Key: > 8.00

Exercise: I am curious: what pIC50 value has been reported for C/C=C/C(=O)N[C@@H](c1ccoc1)[C@@H](O)C(=O)O[C@H]1C[C@@]2(O)[C@@H](OC(=O)c3ccccc3)[C@@H]3[C@]4(OC(C)=O)CO[C@@H]4C[C@H](OC(=O)CCC)[C@@]3(C)C(=O)[C@H](O)C(=C1C)C2(C)C ?
Key: > 9.00

Exercise: I am curious: what pIC50 value has been reported for CCC(=O)O[C@H]1C[C@H]2OC[C@@]2(OC(C)=O)[C@H]2[C@H](OC(=O)c3ccccc3)[C@]3(O)C[C@H](OC(=O)[C@H](O)[C@@H](NC(=O)OC(C)(C)C)c4ccoc4)C(C)=C([C@@H](O)C(=O)[C@]12C)C3(C)C ?
Key: > 9.00

Exercise: I am curious: what pIC50 value has been reported for CCCC(=O)OC1CC2OCC2(OC(C)=O)C2C(OC(=O)c3ccccc3)C3(O)CC(OC(=O)C(O)C(NC(=O)c4ccccc4)c4cccs4)C(C)=C(C(O)C(=O)C12C)C3(C)C (centres unmarked) ?
Key: > 8.00

Exercise: I am curious: what pIC50 value has been reported for CCC(=O)O[C@H]1C[C@H]2OC[C@@]2(OC(C)=O)[C@H]2[C@H](OC(=O)c3ccccc3)[C@]3(O)C[C@H](OC(=O)[C@H](O)[C@@H](NC(=O)OC(C)(C)C)C4CCC4)C(C)=C([C@@H](O)C(=O)[C@]12C)C3(C)C ?
Key: > 8.00
